Hi there, I'd appreciate the recorded CC50 at 48 h for every entry that follows.
- protocol: Human fetal lung fibroblast (MRC5) cell cytotoxicity assay (resazurin)
- measurement-context: human, MRC5 cells (human fetal lung fibroblasts)
- Experimental: Intermediate plates were made as described, adding 95 μL of DMEM complete media to 5 μL of compound per well setting a 5% DMSO amount. Log-phase MRC5 cells were removed from a T-75 TC flask using TrypLE® Express (Thermo®) and dispersed by gentle pipetting. […] At 4 h prior to fluorescence measurement, 20 μL of 500 μM resazurin solution was added. […]

{"molecule": "CC(O)c1nn2ncccc2c1-c1ccnc(Nc2cccc(C#N)c2)n1 (stereo not shown)", "CC50 at 48 h": "> 50 µM"}

Take each entry in turn and give its CC50 at 48 h.
1. COc1ccc(-c2nn3ncccc3c2-c2ccnc(Nc3ccccc3)n2)cc1
2. Nc1ccnc(-c2cc3c4c(n[nH]c4c2)Nc2ccccc2O3)n1
3. Cn1nc2c3c(cc(-c4ccnc(N)n4)cc31)Oc1ccccc1N2

Result:
> 50 µM
> 50 µM
> 50 µM
